tgt: human TrkA (Homo sapiens, UniProt P04629)
Construct: purchased Lifetechnologies PV3144
Sequence (P04629 33-796): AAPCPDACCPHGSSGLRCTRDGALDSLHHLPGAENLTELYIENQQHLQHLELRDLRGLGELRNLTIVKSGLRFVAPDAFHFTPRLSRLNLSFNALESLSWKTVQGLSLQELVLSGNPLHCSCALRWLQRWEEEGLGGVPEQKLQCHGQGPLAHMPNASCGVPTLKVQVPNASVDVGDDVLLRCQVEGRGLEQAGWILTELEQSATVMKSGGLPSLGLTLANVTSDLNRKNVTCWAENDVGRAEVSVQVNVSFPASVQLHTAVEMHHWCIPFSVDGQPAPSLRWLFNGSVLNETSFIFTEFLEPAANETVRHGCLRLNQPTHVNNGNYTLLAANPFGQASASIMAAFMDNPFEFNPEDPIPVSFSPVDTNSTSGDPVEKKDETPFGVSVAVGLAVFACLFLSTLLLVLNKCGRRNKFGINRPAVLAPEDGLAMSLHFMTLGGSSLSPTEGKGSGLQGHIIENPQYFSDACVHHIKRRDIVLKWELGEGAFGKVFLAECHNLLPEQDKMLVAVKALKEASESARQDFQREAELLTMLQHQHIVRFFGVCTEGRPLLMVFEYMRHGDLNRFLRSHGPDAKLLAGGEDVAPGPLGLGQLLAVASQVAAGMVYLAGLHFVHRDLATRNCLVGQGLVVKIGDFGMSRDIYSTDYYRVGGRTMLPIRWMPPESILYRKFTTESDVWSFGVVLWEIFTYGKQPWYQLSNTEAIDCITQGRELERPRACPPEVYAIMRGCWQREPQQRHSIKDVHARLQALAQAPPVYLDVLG
assay-method-text: Test Example 2: Human TrkA Inhibition Assay
Type: biochemical
conditions: human TrkA inhibition, Test Example 2; class symbols A/B/C; read-out: IC50_nM
pIC50: −log10 of the molar value.
// reported pIC50 per item
experimental-endpoint: pIC50

1. Cc1c(-c2cnn(C)c2)nn(-c2ccccc2)c1NC(=O)N[C@@H]1CN(Cc2ccon2)C[C@H]1c1ccc(F)c(F)c1: > 7.00
2. Cc1c(-c2cnn(C)c2)nn(-c2ccccc2)c1NC(=O)N[C@@H]1CN(CC2CC2)C[C@H]1c1ccc(F)c(F)c1: 6.00 to 7.00
3. COCC(CCl)N1C[C@@H](NC(=O)Nc2c(C)c(-c3cnn(C)c3)nn2-c2ccccc2)[C@H](c2ccc(F)c(F)c2)C1 (stereo partly drawn): > 7.00
4. COCC(CNS(C)(=O)=O)N1C[C@@H](NC(=O)Nc2c(C)c(-c3cnn(C)c3)nn2-c2ccccc2)[C@H](c2ccc(F)c(F)c2)C1 (stereo partly drawn): 6.00 to 7.00
5. CNCC(COC)N1C[C@@H](NC(=O)Nc2c(C)c(-c3cnn(C)c3)nn2-c2ccccc2)[C@H](c2ccc(F)c(F)c2)C1 (stereo partly drawn): 6.00 to 7.00
6. COCCCN1[C@@H]2CC[C@H]1[C@@H](c1ccc(F)c(F)c1)[C@@H]2NC(=O)Nc1c(C)c(-c2cnn(C)c2)nn1-c1ccccc1 (racemic): < 6.00

====

// reported IC50 per item
tgt: human TrkA (Homo sapiens, UniProt P04629)
Construct: purchased Lifetechnologies PV3144
assay-method-text: Test Example 2-2: Human TrkA Inhibition Assay
Type: biochemical
conditions: human TrkA inhibition, class symbols A/B/C, read-out: IC50_nM
experimental-endpoint: IC50

1) Cc1c(-c2cnn(C)c2)nn(-c2ccccc2)c1NC(=O)N[C@@H]1CN(Cc2cc(Br)co2)C[C@H]1c1ccc(F)c(F)c1: < 0.1 µM
2) COCC[C@H]1C[C@@H](NC(=O)Nc2c(C)c(-c3cnn(C)c3)nn2-c2ccccc2)[C@H](c2ccccc2)N1C: < 0.1 µM
3) COC(=O)C(c1ccco1)N1C[C@@H](NC(=O)Nc2c(C)c(-c3cnn(C)c3)nn2-c2ccccc2)[C@H](c2ccc(F)c(F)c2)C1 (stereo partly shown): 0.1 to 1 µM
4) CCOc1nn(-c2ccccc2)c(NC(=O)N[C@@H]2CC(CCOC)C[C@H]2c2ccccc2)c1C (stereo partly shown) [Compound I-183]: < 0.1 µM
5) COCC[C@@H]1C[C@@H](NC(=O)Nc2c(C)c(C3=CCN(C(=O)OC(C)(C)C)CC3)nn2-c2ccccc2)[C@H](c2ccc(F)c(F)c2)N1C: < 0.1 µM
6) COCCC1C[C@@H](NC(=O)Nc2c(C)c(-c3cnn(C)c3)nn2-c2ccccc2)[C@H](c2ccc(O)c(O)c2)C1 (stereo partly shown): < 0.1 µM
7) CCOc1nn(-c2ccccc2)c(NC(=O)N[C@@H]2C[C@@H](CCOC)[C@H](CO)[C@H]2c2ccccc2)c1C: 0.1 to 1 µM
8) Cc1c(-c2cnn(C)c2)nn(-c2ccccc2)c1NC(=O)N[C@@H]1CN(C(C)C)C[C@H]1c1ccc(F)c(F)c1: > 1 µM
9) COCC[C@@H]1C[C@@H](NC(=O)Nc2c(C)c(-c3cnn(C)c3)nn2-c2ccccc2)[C@H](c2ccccc2)[C@H]1C(F)F: < 0.1 µM
10) Cc1c(-c2cnn(C)c2)nn(-c2ccccc2)c1NC(=O)N[C@@H]1CN(CCOC(C)C)C[C@H]1c1ccc(F)c(F)c1: < 0.1 µM
11) COCCN1C[C@@H](NC(=O)Nc2c(C)c(-c3cnn(C)c3)nn2-c2ccccc2)[C@H](c2ccnc(OC)c2)C1 (racemic): 0.1 to 1 µM
12) Cc1c(-c2cnn(C)c2)nn(-c2ccccc2)c1NC(=O)N[C@@H]1CN(Cc2ccc(C(=O)O)o2)C[C@H]1c1ccc(F)c(F)c1: > 1 µM
13) Cc1c(-c2cnn(C)c2)nn(-c2ccccc2)c1NC(=O)N[C@@H]1CN(Cc2ccccn2)C[C@H]1c1ccc(F)c(F)c1: 0.1 to 1 µM

====

tgt: human TrkA (Homo sapiens)
Construct: purchased Lifetechnologies PV3144
assay-method-text: Test Example 2-2: Human TrkA Inhibition Assay
Assay type: biochemical
conditions: human TrkA inhibition, class symbols A/B/C, read-out: IC50_nM
experimental-endpoint: IC50

1. COCCN1C[C@@H](NC(=O)Nc2c(C)c(-c3cnn(C)c3)nn2-c2ccccc2)[C@H](c2ccc3occc3c2)C1 (racemic) [Compound I-232]: 100 to 1000 nM
2. COCC[C@@H]1C[C@@H](NC(=O)Nc2c(C)c(-c3cnc(C)nc3)nn2-c2ccccc2)[C@H](c2ccccc2)C1 [Compound I-263]: < 100 nM
3. CCN1C(CCOC)C[C@@H](NC(=O)Nc2c(C)c(-c3cnn(C)c3)nn2-c2ccccc2)[C@@H]1c1ccc(F)c(F)c1 (stereo partly drawn) [Compound I-178]: < 100 nM
4. COCC[C@@H]1C[C@@H](NC(=O)Nc2c(C)c(-c3cnn(C)c3)nn2-c2ccccc2)[C@H](c2ccccc2)N1 [Compound I-242]: 100 to 1000 nM
5. COCCC1C[C@@H](NC(=O)Nc2c(C)c(-c3cnn(C)c3)nn2-c2ccccc2)[C@H](c2ccc(F)c(F)c2)N1Cc1ccccc1 (stereo partly drawn) [Compound I-196]: > 1000 nM
6. Cc1ccc(CN2C[C@@H](NC(=O)Nc3c(C)c(-c4cnn(C)c4)nn3-c3ccccc3)[C@H](c3ccc(F)c(F)c3)C2)o1 [Compound I-193]: < 100 nM
7. COCC(O)[C@H]1C[C@@H](NC(=O)Nc2c(C)c(-c3cnn(C)c3)nn2-c2ccccc2)[C@H](c2ccc(F)c(F)c2)N1 (stereo partly drawn) [Compound I-215]: 100 to 1000 nM
8. Cc1c(-c2cnn(C)c2)nn(-c2ccccc2)c1NC(=O)N[C@@H]1CN(Cc2ccc(CO)o2)C[C@H]1c1ccc(F)c(F)c1 [Compound I-191]: 100 to 1000 nM
9. COCC[C@@H]1C[C@@H](NC(=O)Nc2c(C)c(C3=CCNCC3)nn2-c2ccccc2)[C@H](c2ccc(F)c(F)c2)N1C [Compound I-258]: < 100 nM
10. CO[C@@H]1C[C@@H](NC(=O)Nc2c(C)c(-c3cnn(C)c3)nn2-c2ccccc2)[C@H](c2ccccc2)C1 (racemic) [Compound I-210]: 100 to 1000 nM
11. Cc1c(-c2cnn(C)c2)nn(-c2ccccc2)c1NC(=O)N[C@@H]1CN(Cc2csc(Cl)n2)C[C@H]1c1ccc(F)c(F)c1 [Compound I-204]: < 100 nM
12. COCC[C@@H]1C[C@@H](NC(=O)Nc2c(C)c(-c3ccc(C(=O)OC(C)(C)C)cc3)nn2-c2ccccc2)[C@H](c2ccc(F)c(F)c2)N1C [Compound I-236]: < 100 nM

====

tgt: human TrkA (Homo sapiens, UniProt P04629)
Construct: purchased Lifetechnologies PV3144
assay-method-text: Test Example 2: Human TrkA Inhibition Assay
Format: biochemical
conditions: human TrkA inhibition, Test Example 2; class symbols A/B/C; read-out: IC50_nM
pIC50: −log10 of the molar value.
experimental-endpoint: pIC50

1. COCCN1C[C@@H](NC(=O)Nc2c(C)c(-c3cnn(C)c3)nn2-c2ccccc2)[C@H](c2cccc(-c3ccccc3C#N)c2)C1 (racemic): 6.00 to 7.00
2. COCC(CC(=O)OC)N1C[C@@H](NC(=O)Nc2c(C)c(-c3cnn(C)c3)nn2-c2ccccc2)[C@H](c2ccc(F)c(F)c2)C1 (stereo partly shown): 6.00 to 7.00
3. COCCN1C[C@@H](NC(=O)Nc2c(C)c(-c3cnn(C)c3)nn2-c2ccccc2)[C@H](c2cccc(C(=O)OC)c2)C1 (racemic): < 6.00
4. COCCN1[C@@H]2CC[C@H]1[C@@H](c1ccc(F)c(F)c1)[C@@H]2NC(=O)Nc1c(C)c(-c2cnn(C)c2)nn1-c1ccccc1 (racemic): < 6.00
5. Cc1c(-c2cnn(C)c2)nn(-c2ccccc2)c1NC(=O)N[C@@H]1CN(Cc2ccccc2)[C@H]1c1ccccc1 (racemic): < 6.00
6. COCCN1C[C@@H](NC(=NOC)Nc2c(C)c(-c3cnn(C)c3)nn2-c2ccccc2)[C@H](c2ccccc2)C1: < 6.00
7. COCC(CNC(N)=O)N1C[C@@H](NC(=O)Nc2c(C)c(-c3cnn(C)c3)nn2-c2ccccc2)[C@H](c2ccc(F)c(F)c2)C1 (stereo partly shown): > 7.00
8. Cc1c(-c2cnn(C)c2)nn(-c2ccccc2)c1NC(=O)N[C@@H]1C[C@@H](C)N(C(=O)OC(C)(C)C)[C@H]1c1ccc(F)c(F)c1 (racemic): < 6.00
9. COCC(C(N)=O)N1C[C@@H](NC(=O)Nc2c(C)c(-c3cnn(C)c3)nn2-c2ccccc2)[C@H](c2ccc(F)c(F)c2)C1 (stereo partly shown) [Compound I-116]: 6.00 to 7.00
10. COCCN1C[C@@H](NC(=O)Nc2c(C)c(-c3cnn(C)c3)nn2-c2ccccc2)[C@H](c2ccc3c(c2)N(C(=O)OC(C)(C)C)CCO3)C1 (racemic): < 6.00
11. COCCN1C[C@@H](NC(=O)N(C)c2c(C)c(-c3cnn(C)c3)nn2-c2ccccc2)[C@H](c2ccc(F)c(F)c2)C1: < 6.00
12. Cc1c(-c2cnn(C)c2)nn(-c2ccccc2)c1NC(=O)NC1CCCCC1Cc1ccc(Cl)cc1 (stereo not shown): < 6.00
13. COCCN1C[C@@H](NC(=O)Nc2c(C)c(-c3cnn(C)c3)nn2-c2ccccc2)[C@H](C2CCCCC2)C1 (racemic): 6.00 to 7.00

Reference source: patent US10532985B2
